assayed target: Fibroblast growth factor receptor 1 (Homo sapiens)
Sequence (P11362 whole entry): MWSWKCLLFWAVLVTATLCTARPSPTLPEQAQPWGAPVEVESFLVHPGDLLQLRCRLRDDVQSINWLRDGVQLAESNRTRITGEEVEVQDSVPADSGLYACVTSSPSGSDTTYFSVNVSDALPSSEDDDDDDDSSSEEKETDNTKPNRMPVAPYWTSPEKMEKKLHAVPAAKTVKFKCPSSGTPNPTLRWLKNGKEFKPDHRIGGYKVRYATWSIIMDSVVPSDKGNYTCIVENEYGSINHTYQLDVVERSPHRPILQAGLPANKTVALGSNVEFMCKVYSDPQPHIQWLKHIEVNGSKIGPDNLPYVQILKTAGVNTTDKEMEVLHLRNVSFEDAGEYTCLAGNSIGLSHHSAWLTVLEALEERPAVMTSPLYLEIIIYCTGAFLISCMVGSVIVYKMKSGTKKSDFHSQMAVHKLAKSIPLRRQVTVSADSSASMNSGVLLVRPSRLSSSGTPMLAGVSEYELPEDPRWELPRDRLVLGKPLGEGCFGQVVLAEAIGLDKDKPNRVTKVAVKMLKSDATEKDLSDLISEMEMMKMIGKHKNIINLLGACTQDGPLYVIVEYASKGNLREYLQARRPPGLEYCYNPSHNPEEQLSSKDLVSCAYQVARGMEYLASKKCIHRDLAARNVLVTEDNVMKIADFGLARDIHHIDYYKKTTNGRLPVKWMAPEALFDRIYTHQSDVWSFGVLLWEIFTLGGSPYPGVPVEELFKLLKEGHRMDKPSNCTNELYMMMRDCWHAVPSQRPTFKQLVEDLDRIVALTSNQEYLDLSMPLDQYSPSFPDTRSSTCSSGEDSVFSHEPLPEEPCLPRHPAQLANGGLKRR
measured endpoint: IC50

Entry `Nc1nc(NCCNc2ncc(-n3ccnc3)c(-c3ccc(Cl)cc3Cl)n2)ccc1[N+](=O)[O-]` under Fibroblast growth factor receptor 1 (Homo sapiens) had IC50 of > 1000 nM

---

As a worked illustration, we turn to IC50 data collected for Glycogen synthase kinase-3 beta (Homo sapiens, UniProt P49841).
Answers are plain numbers, in pM.

smi=Nc1nc(NCCNc2ncc(-c3ncc[nH]3)c(-c3ccc(Cl)cc3Cl)n2)ccc1[N+](=O)[O-] assayed_target="Glycogen synthase kinase-3 beta (Homo sapiens, UniProt P49841)" number=600

For the next question, use this compound.
For record `Nc1nc(NCCNc2ncc(-n3ccnc3)c(-c3ccc(Cl)cc3Cl)n2)ccc1[N+](=O)[O-]` the listed IC50 is 600

---

test details: Inhibition of human phosphodiesterase 3 using cAMP substrate after 20 mins by scintillation counting
measured endpoint: Ki (µM)
Answers are plain numbers, in µM.

Entry Cc1cnc(-c2cnc(NCCNc3ccc(C#N)cn3)nc2-c2ccc(Cl)cc2Cl)[nH]1 [LADUVIGLUSIB] ; Ki = 8.3

---

test details: Volume of distribution at steady state in iv dosed diabetic ZDF rat
Type: ADME, organism-based
measurement parameters: in vivo, read-out: Vdss
measured endpoint: Vd (L/kg)
Numbers only, in L/kg.

Data point: `Cc1c[nH]c(-c2cnc(NCCNc3ccc(C#N)cn3)nc2-c2ccc(Cl)cc2Cl)n1` ; Vd = 3.6

---

test details: Oral bioavailability in diabetic ZDF rat
Assay type: ADME, organism-based
measurement parameters: in vivo
measured endpoint: bioavailability

The molecule listed as Cc1c[nH]c(-c2cnc(NCCNc3ccc(C#N)cn3)nc2-c2ccc(Cl)cc2Cl)n1 [LADUVIGLUSIB] shows bioavailability equal to 36 to 43%

---

test details: Stability in human liver microsomes assessed as half life
Assay type: ADME, microsome
measured endpoint: half-life (h)
Give bare numbers, in h.

Batch request: half-life per item, same order as input.
1. Cc1c[nH]c(-c2cnc(NCCNc3ccc(C#N)cn3)nc2-c2ccc(Cl)cc2Cl)n1
2. N#Cc1ccc(NCCNc2ncc(-c3ncc[nH]3)c(-c3ccc(Cl)cc3Cl)n2)nc1

Data returned:
1: 1.82; 2: 0.55

---

I'd be grateful if you could share measured IC50 for these entries.
test details: Inhibition of rat AMP kinase using SAMS peptide substrate in the presence of AMP after 1 hr by scintillation counting method

smi=Cc1cnc(-c2cnc(NCCNc3ccc(C#N)cn3)nc2-c2ccc(Cl)cc2Cl)[nH]1 result="> 10 µM"

IC50 in this record for `Nc1nc(NCCNc2ncc(-c3ncc[nH]3)c(-c3ccc(Cl)cc3Cl)n2)ccc1[N+](=O)[O-]` : > 10 µM

---

test details: Inhibition of human phosphatidylinositol (PI) 3-kinase using PI as substrate after 1 hr by scintillation counting method
measured endpoint: IC50

Answered examples (2):
smi=Nc1nc(NCCNc2ncc(-c3ncc[nH]3)c(-c3ccc(Cl)cc3Cl)n2)ccc1[N+](=O)[O-] result="> 5 µM"
smi=Cc1cnc(-c2cnc(NCCNc3ccc(C#N)cn3)nc2-c2ccc(Cl)cc2Cl)[nH]1 result="> 10 µM"

Short answer for `Nc1nc(NCCNc2ncc(-n3ccnc3)c(-c3ccc(Cl)cc3Cl)n2)ccc1[N+](=O)[O-]` : IC50 was > 5 µM

---

System: Vascular endothelial growth factor receptor 1 (Homo sapiens) | Read-out: pIC50
Sequence (P17948 whole entry): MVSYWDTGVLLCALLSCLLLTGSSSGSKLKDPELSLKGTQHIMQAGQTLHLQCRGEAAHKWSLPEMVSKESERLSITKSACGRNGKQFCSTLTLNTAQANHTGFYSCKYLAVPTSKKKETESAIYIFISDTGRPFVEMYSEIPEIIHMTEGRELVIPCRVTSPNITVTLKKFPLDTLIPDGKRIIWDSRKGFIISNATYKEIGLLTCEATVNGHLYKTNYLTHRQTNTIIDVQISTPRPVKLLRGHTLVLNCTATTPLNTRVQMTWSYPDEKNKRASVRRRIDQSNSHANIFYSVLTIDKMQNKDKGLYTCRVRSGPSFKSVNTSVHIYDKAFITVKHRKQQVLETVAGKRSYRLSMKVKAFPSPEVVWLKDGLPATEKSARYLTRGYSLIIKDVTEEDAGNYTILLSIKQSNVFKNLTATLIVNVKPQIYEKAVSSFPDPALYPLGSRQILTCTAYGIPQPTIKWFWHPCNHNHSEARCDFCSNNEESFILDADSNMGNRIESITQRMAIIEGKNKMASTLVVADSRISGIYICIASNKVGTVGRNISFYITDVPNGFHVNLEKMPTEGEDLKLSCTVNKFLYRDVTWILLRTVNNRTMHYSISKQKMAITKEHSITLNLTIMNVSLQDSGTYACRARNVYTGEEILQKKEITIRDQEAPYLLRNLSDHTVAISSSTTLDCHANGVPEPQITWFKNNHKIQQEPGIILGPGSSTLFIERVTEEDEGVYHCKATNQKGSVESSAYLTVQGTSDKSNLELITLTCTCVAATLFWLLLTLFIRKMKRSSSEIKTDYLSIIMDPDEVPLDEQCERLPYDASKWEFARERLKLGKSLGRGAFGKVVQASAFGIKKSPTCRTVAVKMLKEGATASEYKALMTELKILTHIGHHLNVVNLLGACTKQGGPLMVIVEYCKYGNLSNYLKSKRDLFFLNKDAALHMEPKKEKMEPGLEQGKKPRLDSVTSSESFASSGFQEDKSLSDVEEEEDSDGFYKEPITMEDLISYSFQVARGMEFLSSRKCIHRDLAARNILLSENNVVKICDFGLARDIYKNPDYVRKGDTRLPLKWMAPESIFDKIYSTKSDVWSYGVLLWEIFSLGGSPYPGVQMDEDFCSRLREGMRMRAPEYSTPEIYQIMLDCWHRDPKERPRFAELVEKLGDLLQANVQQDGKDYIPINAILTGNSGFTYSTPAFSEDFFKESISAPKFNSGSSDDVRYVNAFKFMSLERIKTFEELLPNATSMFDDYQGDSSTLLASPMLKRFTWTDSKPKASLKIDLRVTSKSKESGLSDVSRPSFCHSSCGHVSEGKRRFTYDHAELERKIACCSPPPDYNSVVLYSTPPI
pIC50: −log10 of the molar value.

smi=Nc1nc(NCCNc2ncc(-n3ccnc3)c(-c3ccc(Cl)cc3Cl)n2)ccc1[N+](=O)[O-] measured_endpoint=pIC50 result="< 5.30"

Note: attention shifts to another entry.
What the record says about `Nc1nc(NCCNc2ncc(-c3ncc[nH]3)c(-c3ccc(Cl)cc3Cl)n2)ccc1[N+](=O)[O-]` : pIC50 is < 5.30
